# testedSystem: CYP1A2 (Homo sapiens)
# Construct: manually incubated in duplicate with human liver microsomes (1 mg protein/mL); tissue Sekisui XenoTech, LLC; host or cells: pooled human liver microsomes (200 donors)
# Sequence (P05177 1-516): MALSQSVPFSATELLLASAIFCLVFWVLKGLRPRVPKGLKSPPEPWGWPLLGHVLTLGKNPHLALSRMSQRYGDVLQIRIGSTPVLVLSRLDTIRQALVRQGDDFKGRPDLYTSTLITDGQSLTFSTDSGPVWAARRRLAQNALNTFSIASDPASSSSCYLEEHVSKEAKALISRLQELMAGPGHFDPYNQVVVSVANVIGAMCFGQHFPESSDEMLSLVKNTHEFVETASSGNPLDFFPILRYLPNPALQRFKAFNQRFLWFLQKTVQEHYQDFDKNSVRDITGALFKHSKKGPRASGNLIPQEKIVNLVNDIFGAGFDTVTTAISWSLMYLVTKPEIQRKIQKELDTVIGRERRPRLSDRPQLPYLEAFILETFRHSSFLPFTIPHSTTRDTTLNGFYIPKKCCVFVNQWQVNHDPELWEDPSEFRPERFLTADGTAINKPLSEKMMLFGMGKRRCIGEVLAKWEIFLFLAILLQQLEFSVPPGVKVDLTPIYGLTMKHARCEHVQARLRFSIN
# testName: Chemical inhibition of FFA metabolism in human liver microsomes, CYP1A2
# Format: in vitro ADME
# conditionSummary: probe FFA (1 µM), demethylation to nFFA, inhibitor 10 µM, metabolism-dependent, read-out: Reduction in FFA demethylation (percent inhibition by a selective inhibitor)

[
  {
    "moleculeSmiles": "Cc1nc2c([nH]1)c(=O)n(C)c(=O)n2Cc1ccco1",
    "inhibition at 60 min, 10 µM (%)": 32
  }
]

The measurements presented in this section are drawn from paper PMC9124820.
